- experimental-protocol: Microsomal stability in mouse microsomes measured per 10^6 cells
- Type: ADME, Microsome
observed-property: Stability

Solved entries (count: 4):
Cn1cc2c3cc(C(=O)O)ccc3n(C34CC(C(F)(F)F)(C3)C4)c2n1    < 10 µL/min
Cn1cc2c3cc(C(=O)O)ccc3n(C3CC4(C3)CC(F)(F)C4)c2n1    < 10 µL/min
Cn1cc2c3cc(C(=O)O)ccc3n(CC3CC(C(F)(F)F)C3)c2n1 (stereo not given)    < 10 µL/min
Cn1cc2c3cc(C(=O)O)ccc3n(CCC(C)(C)C(F)(F)F)c2n1    < 10 µL/min

Okay, now this molecule:
Can you look up the measured Stability of `Cn1cc2c3cc(C(=O)O)ccc3n(C)c2n1` for me?
< 10 µL/min

* * *

The following compounds are listed with their measured Stability values.
- experimental-protocol: Microsomal stability in human microsomes measured per 10^6 cells
- Format: ADME, Microsome

Can you look up the measured Stability of `Cn1cc2c3cc(C(=O)O)ccc3n(-c3ccc(OC(F)(F)F)cc3)c2n1` for me?
12 µL/min

Can you look up the measured Stability of `Cn1cc2c3cc(C(=O)O)ccc3n(CCC(C)(C)C(F)(F)F)c2n1` for me?
< 10 µL/min

Can you look up the measured Stability of `Cn1cc2c3cc(C(=O)O)ccc3n(C)c2n1` for me?
< 10 µL/min

* * *

- System: SW-620
- experimental-protocol: Cytotoxicity against YAP/TAZ knockout human SW620 cells assessed as cell viability measured for 4 days by celltiter-glo assay
- condition-label: SW-620, 96 h
observed-property: IC50

Can you look up the measured IC50 of `Cn1cc2c3cc(C(=O)O)ccc3n(-c3ccc(C(F)(F)F)cc3)c2n1` for me?
> 30 µM

* * *

- experimental-target: Transcriptional enhancer factor TEF-5 (Homo sapiens, UniProt Q99594)
- Sequence (Q99594 whole entry, the tested form may be a part): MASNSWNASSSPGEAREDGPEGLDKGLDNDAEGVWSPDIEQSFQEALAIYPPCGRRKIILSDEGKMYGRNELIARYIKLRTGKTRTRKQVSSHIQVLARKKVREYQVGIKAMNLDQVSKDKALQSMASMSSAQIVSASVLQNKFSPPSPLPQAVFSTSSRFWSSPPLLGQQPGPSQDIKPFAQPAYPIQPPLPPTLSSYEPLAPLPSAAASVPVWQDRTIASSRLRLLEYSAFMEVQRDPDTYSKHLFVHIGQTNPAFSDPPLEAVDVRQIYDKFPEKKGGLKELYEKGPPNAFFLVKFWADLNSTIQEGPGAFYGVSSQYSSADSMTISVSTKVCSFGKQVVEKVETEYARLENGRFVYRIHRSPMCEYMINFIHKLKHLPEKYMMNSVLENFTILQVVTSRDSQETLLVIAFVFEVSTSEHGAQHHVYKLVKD
- experimental-protocol: Binding affinity to human TEAD3 (216 to 435 residues) expressed in Escherichia coli BL21 Star (DE3) assessed as change in melting temperature incubated for 2 hrs by measuring tryptophane fluorescence by Nano Differential scanning fluorometry
The following molecules are listed with their measured ΔTm values.
A number alone suffices; assume °C.

Solved entries (count: 6):
C[C@@H](NC(=O)c1ccc2c(-c3ccc(C(F)(F)F)cc3)cccc2c1)c1cccc(N)n1    5.9
Cn1cc2c3cc(C(=O)O)ccc3n(-c3ccc(C(F)(F)F)cc3)c2n1    5.1
CNS(=O)(=O)c1ccc(Nc2ccc(C(F)(F)F)cc2)c(-c2cn(C)cn2)c1    2
C[C@H](NC(=O)c1ccc2c(-c3ccc(C(F)(F)F)cc3)cccc2c1)c1cccc(N)n1    13.4
C[C@H](NC(=O)c1ccc2c(-c3ccc(C(F)(F)F)cc3)cccc2c1)c1ccccn1    10.1
O=c1[nH]c(-c2nccnc2Nc2ccc(C(F)(F)F)cc2)no1    8.2

Okay, now this molecule:
Can you look up ΔTm on Transcriptional enhancer factor TEF-5 (Homo sapiens, UniProt Q99594) for `CNS(=O)(=O)c1ccc(NCc2ccccc2)c(-c2cn(C)cn2)c1` ?
0.4

* * *

- experimental-target: Transcriptional enhancer factor TEF-4 (Homo sapiens, UniProt Q15562)
- Sequence (Q15562 whole entry, the tested form may be a part): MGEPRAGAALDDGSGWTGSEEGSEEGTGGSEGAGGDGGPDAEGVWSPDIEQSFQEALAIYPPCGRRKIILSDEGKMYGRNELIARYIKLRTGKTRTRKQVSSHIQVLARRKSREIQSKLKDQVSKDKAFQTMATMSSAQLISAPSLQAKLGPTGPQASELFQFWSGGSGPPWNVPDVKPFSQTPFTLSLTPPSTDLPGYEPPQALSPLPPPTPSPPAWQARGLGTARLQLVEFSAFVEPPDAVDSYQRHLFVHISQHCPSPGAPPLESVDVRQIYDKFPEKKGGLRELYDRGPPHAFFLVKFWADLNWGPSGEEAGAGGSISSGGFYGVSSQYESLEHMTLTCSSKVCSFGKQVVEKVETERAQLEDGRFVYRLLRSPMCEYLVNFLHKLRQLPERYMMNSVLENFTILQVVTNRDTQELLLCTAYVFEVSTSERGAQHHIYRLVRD
- experimental-protocol: Binding affinity to human TEAD2 (217 to 447 residues) expressed in Escherichia coli BL21 Star (DE3) assessed as change in melting temperature incubated for 2 hrs by measuring tryptophane fluorescence by Nano Differential scanning fluorometry
The following compounds are listed with their measured ΔTm values.
A number alone suffices; assume °C.

C[C@H](NC(=O)c1ccc2c(-c3ccc(C(F)(F)F)cc3)cccc2c1)c1ccccn1    9.8

Can you look up ΔTm on Transcriptional enhancer factor TEF-4 (Homo sapiens, UniProt Q15562) for `C[C@H](NC(=O)c1ccc2c(-c3ccc(C(F)(F)F)cc3)cccc2c1)c1cccc(N)n1` ?
13.4

Can you look up ΔTm on Transcriptional enhancer factor TEF-4 (Homo sapiens, UniProt Q15562) for `C[C@@H](NC(=O)c1ccc2c(-c3ccc(C(F)(F)F)cc3)cccc2c1)c1cccc(N)n1` ?
3.8

Can you look up ΔTm on Transcriptional enhancer factor TEF-4 (Homo sapiens, UniProt Q15562) for `CNS(=O)(=O)c1ccc(Nc2ccc(C(F)(F)F)cc2)c(-c2cn(C)cn2)c1` ?
7.2

Can you look up ΔTm on Transcriptional enhancer factor TEF-4 (Homo sapiens, UniProt Q15562) for `CNS(=O)(=O)c1ccc(NCc2ccccc2)c(-c2cn(C)cn2)c1` ?
-0.7

Can you look up ΔTm on Transcriptional enhancer factor TEF-4 (Homo sapiens, UniProt Q15562) for `Cn1cc2c3cc(C(=O)O)ccc3n(-c3ccc(C(F)(F)F)cc3)c2n1` ?
-3.7

Can you look up ΔTm on Transcriptional enhancer factor TEF-4 (Homo sapiens, UniProt Q15562) for `O=c1[nH]c(-c2nccnc2Nc2ccc(C(F)(F)F)cc2)no1` ?
12.3
